- Measured On: von Hippel-Lindau disease tumor suppressor/Vascular endothelial growth factor receptor 2 (Homo sapiens, UniProt P35968+P40337)
- Sequence (P35968 whole entry): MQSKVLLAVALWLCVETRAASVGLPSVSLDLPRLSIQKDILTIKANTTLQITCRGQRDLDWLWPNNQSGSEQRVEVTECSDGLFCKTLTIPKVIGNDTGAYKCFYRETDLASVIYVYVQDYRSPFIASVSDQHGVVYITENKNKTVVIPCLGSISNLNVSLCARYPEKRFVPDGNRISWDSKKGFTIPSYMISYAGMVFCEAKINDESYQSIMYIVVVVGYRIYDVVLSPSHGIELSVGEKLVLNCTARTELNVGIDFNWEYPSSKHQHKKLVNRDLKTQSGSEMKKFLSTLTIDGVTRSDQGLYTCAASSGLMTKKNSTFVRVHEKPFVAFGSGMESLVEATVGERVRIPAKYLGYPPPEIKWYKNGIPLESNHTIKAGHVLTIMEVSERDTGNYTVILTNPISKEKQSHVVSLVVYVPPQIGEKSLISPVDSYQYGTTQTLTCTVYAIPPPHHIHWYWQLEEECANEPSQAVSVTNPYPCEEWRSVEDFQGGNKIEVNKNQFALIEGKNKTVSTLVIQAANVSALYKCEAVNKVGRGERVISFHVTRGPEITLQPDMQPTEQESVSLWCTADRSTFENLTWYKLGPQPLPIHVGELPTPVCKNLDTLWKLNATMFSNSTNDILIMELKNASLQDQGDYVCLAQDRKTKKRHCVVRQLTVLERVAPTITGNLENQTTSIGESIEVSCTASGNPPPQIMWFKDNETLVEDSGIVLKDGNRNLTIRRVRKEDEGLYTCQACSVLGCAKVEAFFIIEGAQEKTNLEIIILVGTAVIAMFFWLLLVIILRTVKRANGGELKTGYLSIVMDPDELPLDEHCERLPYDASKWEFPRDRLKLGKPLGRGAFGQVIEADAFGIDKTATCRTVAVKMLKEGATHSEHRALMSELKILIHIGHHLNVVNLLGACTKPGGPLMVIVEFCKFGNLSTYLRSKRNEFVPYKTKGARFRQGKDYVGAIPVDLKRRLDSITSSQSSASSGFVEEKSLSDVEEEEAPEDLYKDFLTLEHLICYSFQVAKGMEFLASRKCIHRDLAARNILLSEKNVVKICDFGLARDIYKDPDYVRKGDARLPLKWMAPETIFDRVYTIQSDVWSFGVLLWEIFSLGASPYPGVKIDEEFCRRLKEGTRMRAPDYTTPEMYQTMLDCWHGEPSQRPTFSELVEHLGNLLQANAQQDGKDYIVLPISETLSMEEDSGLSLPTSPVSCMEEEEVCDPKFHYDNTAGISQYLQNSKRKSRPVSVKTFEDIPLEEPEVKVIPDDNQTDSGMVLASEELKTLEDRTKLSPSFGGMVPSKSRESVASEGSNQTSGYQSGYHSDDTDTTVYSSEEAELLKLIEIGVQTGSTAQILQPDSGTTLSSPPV
- Sequence (P40337 whole entry): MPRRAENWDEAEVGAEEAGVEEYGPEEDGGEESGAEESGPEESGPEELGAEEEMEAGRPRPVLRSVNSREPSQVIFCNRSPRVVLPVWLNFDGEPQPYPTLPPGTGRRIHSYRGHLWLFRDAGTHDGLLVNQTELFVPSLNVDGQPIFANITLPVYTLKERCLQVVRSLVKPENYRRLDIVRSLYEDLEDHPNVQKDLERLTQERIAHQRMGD
- Experiment Summary: PROTAC activity at VHL/VEGFR2 in human HGC-27 cells assessed as reduction in VEGFR2 protein level incubated for 24 hrs by Western blot analysis
- Type: cell-based
EC50 by entry:
Parameter: EC50 (nM)

• Cc1ccc(NC(=O)Cn2cc(-c3ccc4c(NC(=O)c5ccc(NC(=O)CCCCC(=O)N6CCN(CCCCC(=O)N[C@H](C(=O)N7C[C@H](O)C[C@H]7C(=O)NCc7ccc(-c8scnc8C)cc7)C(C)(C)C)CC6)cc5)n[nH]c4c3)cn2)cc1C(F)(F)F = 640
• Cc1ccc(NC(=O)Cn2cc(-c3ccc4c(NC(=O)c5ccc(NC(=O)CCCCCCC(=O)N[C@H](C(=O)N6C[C@H](O)C[C@H]6C(=O)NCc6ccc(-c7scnc7C)cc6)C(C)(C)C)cc5)n[nH]c4c3)cn2)cc1C(F)(F)F = 280
• Cc1ccc(NC(=O)Cn2cc(-c3ccc4c(NC(=O)c5ccc(N)cc5)nn(C(=O)CCCCCCCCCCC(=O)N[C@H](C(=O)N5C[C@H](O)C[C@H]5C(=O)NCc5ccc(-c6scnc6C)cc5)C(C)(C)C)c4c3)cn2)cc1C(F)(F)F = 320

* * *

- Experiment Summary: Cytotoxicity against HEK293T cells assessed as inhibition of cell growth incubated for 72 hrs by MTT assay
- Format: toxicity, cell-based, HEK-293T
- Run Conditions: human
IC50 at 72 h values by entry
Parameter: IC50 at 72 h

• Cc1ccc(NC(=O)Cn2cc(-c3ccc4c(NC(=O)c5ccc(N6CCN(C(=O)NCCCCCCCCCCC(=O)N[C@H](C(=O)N7C[C@H](O)C[C@H]7C(=O)NCc7ccc(-c8scnc8C)cc7)C(C)(C)C)CC6)cc5)n[nH]c4c3)cn2)cc1C(F)(F)F = > 100 µM
• Cc1ccc(NC(=O)Cn2cc(-c3ccc4c(NC(=O)c5ccc(NC(=O)CCCCC(=O)N[C@H](C(=O)N6C[C@H](O)C[C@H]6C(=O)NCc6ccc(-c7scnc7C)cc6)C(C)(C)C)cc5)n[nH]c4c3)cn2)cc1C(F)(F)F = 46.8 µM
• Cc1ccc(NC(=O)Cn2cc(-c3ccc4c(NC(=O)c5ccc(N6CCN(C(=O)NCCCCCCCCC(=O)N[C@H](C(=O)N7C[C@H](O)C[C@H]7C(=O)NCc7ccc(-c8scnc8C)cc7)C(C)(C)C)CC6)cc5)n[nH]c4c3)cn2)cc1C(F)(F)F = > 100 µM
• Cc1ccc(NC(=O)Cn2cc(-c3ccc4c(NC(=O)c5ccc(N6CCN(C(=O)NCCCCCCC(=O)N[C@H](C(=O)N7C[C@H](O)C[C@H]7C(=O)NCc7ccc(-c8scnc8C)cc7)C(C)(C)C)CC6)cc5)n[nH]c4c3)cn2)cc1C(F)(F)F = > 100 µM

* * *

List of IC50 at 72 h values.
- Experiment Summary: Cytotoxicity against human GES1 cells assessed as inhibition of cell growth incubated for 72 hrs by MTT assay
- Assay type: toxicity, cell-based
Parameter: IC50 at 72 h (µM)

- Cc1ccc(NC(=O)Cn2cc(-c3ccc4c(NC(=O)c5ccc(N6CCN(CCCCCCC(=O)N[C@H](C(=O)N7C[C@H](O)C[C@H]7C(=O)NCc7ccc(-c8scnc8C)cc7)C(C)(C)C)CC6)cc5)n[nH]c4c3)cn2)cc1C(F)(F)F: 22.4
- Cc1ccc(NC(=O)Cn2cc(-c3ccc4c(NC(=O)c5ccc(N)cc5)nn(C(=O)CCCCCCCCCCC(=O)N[C@H](C(=O)N5C[C@H](O)C[C@H]5C(=O)NCc5ccc(-c6scnc6C)cc5)C(C)(C)C)c4c3)cn2)cc1C(F)(F)F: 49.7
- Cc1ccc(NC(=O)Cn2cc(-c3ccc4c(NC(=O)c5ccc(NC(=O)CCCCC(=O)N6CCN(CCCCCCCC(=O)N[C@H](C(=O)N7C[C@H](O)C[C@H]7C(=O)NCc7ccc(-c8scnc8C)cc7)C(C)(C)C)CC6)cc5)n[nH]c4c3)cn2)cc1C(F)(F)F: 47.9

* * *

- Experiment Summary: Cytotoxicity against human GES1 cells assessed as inhibition of cell growth incubated for 72 hrs by MTT assay
- Type: toxicity, cell-based
Parameter: IC50 at 72 h (µM)

• Cc1ccc(NC(=O)Cn2cc(-c3ccc4c(NC(=O)c5ccc(NC(=O)CCCCCCCCC(=O)N[C@H](C(=O)N6C[C@H](O)C[C@H]6C(=O)NCc6ccc(-c7scnc7C)cc6)C(C)(C)C)cc5)n[nH]c4c3)cn2)cc1C(F)(F)F = 20
• Cc1ccc(NC(=O)Cn2cc(-c3ccc4c(NC(=O)c5ccc(NC(=O)CCCCC(=O)N[C@H](C(=O)N6C[C@H](O)C[C@H]6C(=O)NCc6ccc(-c7scnc7C)cc6)C(C)(C)C)cc5)n[nH]c4c3)cn2)cc1C(F)(F)F = 46.4

* * *

- Experiment Summary: Cytotoxicity against HUVEC cells assessed as inhibition of cell growth incubated for 72 hrs by MTT assay
- Type: toxicity, cell-based
- Run Conditions: human
Threshold 10 µM. IC50 at 72 h below it: YES. IC50 at 72 h at it or above: NO.

* Cc1ccc(NC(=O)Cn2cc(-c3ccc4c(NC(=O)c5ccc(N)cc5)n[nH]c4c3)cn2)cc1C(F)(F)F | YES
* Cc1ccc(NC(=O)Cn2cc(-c3ccc4c(NC(=O)c5ccc(NC(=O)CCC(=O)N[C@H](C(=O)N6C[C@H](O)C[C@H]6C(=O)NCc6ccc(-c7scnc7C)cc6)C(C)(C)C)cc5)n[nH]c4c3)cn2)cc1C(F)(F)F | NO
* Cc1ccc(NC(=O)Cn2cc(-c3ccc4c(NC(=O)c5ccc(NC(=O)CCCCC(=O)N6CCN(CCCCCC(=O)N[C@H](C(=O)N7C[C@H](O)C[C@H]7C(=O)NCc7ccc(-c8scnc8C)cc7)C(C)(C)C)CC6)cc5)n[nH]c4c3)cn2)cc1C(F)(F)F | NO
* Cc1ccc(NC(=O)Cn2cc(-c3ccc4c(NC(=O)c5ccc(N6CCN(CCCCCC(=O)N[C@H](C(=O)N7C[C@H](O)C[C@H]7C(=O)NCc7ccc(-c8scnc8C)cc7)C(C)(C)C)CC6)cc5)n[nH]c4c3)cn2)cc1C(F)(F)F | NO
* Cc1ccc(NC(=O)Cn2cc(-c3ccc4c(NC(=O)c5ccc(N6CCN(C(=O)NCCCCCCCCC(=O)N[C@H](C(=O)N7C[C@H](O)C[C@H]7C(=O)NCc7ccc(-c8scnc8C)cc7)C(C)(C)C)CC6)cc5)n[nH]c4c3)cn2)cc1C(F)(F)F | NO
* Cc1ccc(NC(=O)Cn2cc(-c3ccc4c(NC(=O)c5ccc(N6CCN(CCCCCCC(=O)N[C@H](C(=O)N7C[C@H](O)C[C@H]7C(=O)NCc7ccc(-c8scnc8C)cc7)C(C)(C)C)CC6)cc5)n[nH]c4c3)cn2)cc1C(F)(F)F | NO
* Cc1ccc(NC(=O)Cn2cc(-c3ccc4c(NC(=O)c5ccc(NC(=O)CCCCCCCCCC(=O)N[C@H](C(=O)N6C[C@H](O)C[C@H]6C(=O)NCc6ccc(-c7scnc7C)cc6)C(C)(C)C)cc5)n[nH]c4c3)cn2)cc1C(F)(F)F | NO
* Cc1ccc(NC(=O)Cn2cc(-c3ccc4c(NC(=O)c5ccc(NC(=O)CCCCCC(=O)N[C@H](C(=O)N6C[C@H](O)C[C@H]6C(=O)NCc6ccc(-c7scnc7C)cc6)C(C)(C)C)cc5)n[nH]c4c3)cn2)cc1C(F)(F)F | NO
* Cc1ccc(NC(=O)Cn2cc(-c3ccc4c(NC(=O)c5ccc(NC(=O)CCCCCCC(=O)N[C@H](C(=O)N6C[C@H](O)C[C@H]6C(=O)NCc6ccc(-c7scnc7C)cc6)C(C)(C)C)cc5)n[nH]c4c3)cn2)cc1C(F)(F)F | YES
* Cc1ccc(NC(=O)Cn2cc(-c3ccc4c(NC(=O)c5ccc(N6CCNCC6)cc5)n[nH]c4c3)cn2)cc1C(F)(F)F | YES
* Cc1ccc(NC(=O)Cn2cc(-c3ccc4c(NC(=O)c5ccc(N6CCN(C(=O)NCCCCCCC(=O)N[C@H](C(=O)N7C[C@H](O)C[C@H]7C(=O)NCc7ccc(-c8scnc8C)cc7)C(C)(C)C)CC6)cc5)n[nH]c4c3)cn2)cc1C(F)(F)F | NO
* Cc1ccc(NC(=O)Cn2cc(-c3ccc4c(NC(=O)c5ccc(N6CCN(CCCCCCCC(=O)N[C@H](C(=O)N7C[C@H](O)C[C@H]7C(=O)NCc7ccc(-c8scnc8C)cc7)C(C)(C)C)CC6)cc5)n[nH]c4c3)cn2)cc1C(F)(F)F | NO
* Cc1ccc(NC(=O)Cn2cc(-c3ccc4c(NC(=O)c5ccc(N6CCN(C(=O)NCCCCCCCCCCC(=O)N[C@H](C(=O)N7C[C@H](O)C[C@H]7C(=O)NCc7ccc(-c8scnc8C)cc7)C(C)(C)C)CC6)cc5)n[nH]c4c3)cn2)cc1C(F)(F)F | NO
* Cc1ccc(NC(=O)Cn2cc(-c3ccc4c(NC(=O)c5ccc(NC(=O)CCCCCCCCC(=O)N[C@H](C(=O)N6C[C@@H](O)C[C@H]6C(=O)NCc6ccc(-c7scnc7C)cc6)C(C)(C)C)cc5)n[nH]c4c3)cn2)cc1C(F)(F)F | NO
* Cc1ccc(NC(=O)Cn2cc(-c3ccc4c(NC(=O)CCCCCCCCCCC(=O)N[C@@H](C(=O)N5C[C@H](O)C[C@H]5C(=O)NCc5ccc(-c6scnc6C)cc5)C(C)(C)C)n[nH]c4c3)cn2)cc1C(F)(F)F | NO
* CNC(=O)c1cc(Oc2ccc(NC(=O)Nc3ccc(Cl)c(C(F)(F)F)c3)cc2)ccn1 [SORAFENIB] | YES
* Cc1ccc(NC(=O)Cn2cc(-c3ccc4c(NC(=O)c5ccc(N)cc5)nn(C(=O)CCCCCCCCCCC(=O)N[C@H](C(=O)N5C[C@H](O)C[C@H]5C(=O)NCc5ccc(-c6scnc6C)cc5)C(C)(C)C)c4c3)cn2)cc1C(F)(F)F | NO
* Cc1ccc(NC(=O)Cn2cc(-c3ccc4c(NC(=O)c5ccc(N)cc5)nn(C(=O)CCCCCCCCC(=O)N[C@H](C(=O)N5C[C@H](O)C[C@H]5C(=O)NCc5ccc(-c6scnc6C)cc5)C(C)(C)C)c4c3)cn2)cc1C(F)(F)F | YES
